Entry source: patent EP1064284B1

# assay: Stability in acidic medium (hydrolysis of cycle A in pH buffers, HPLC)
# Assay type: physicochemical
# cond: pH=1 buffer, 30 µM in 5 ml, stirred 15 minutes at 37°C
Parameter Hydrolysis rate (%) pH=1: see the listing below.

>  <compound>
COc1ccc2[nH]c3c(c2c1)CCN1C(=O)CCC=C31 [EXAMPLE A, reference compound]

>  <Hydrolysis rate (%) pH=1>
100

$$$$
>  <compound>
COc1ccc2[nH]c3c(c2c1)CCN1C(=O)CCCC31 (stereo not shown) [EXAMPLE B, reference compound]

>  <Hydrolysis rate (%) pH=1>
95

$$$$
>  <compound>
CCC1CCC(=O)N2CCc3c([nH]c4ccc(OC)cc34)C12 (stereo not shown) [Example 8]

>  <Hydrolysis rate (%) pH=1>
0

$$$$
>  <compound>
COc1ccc2[nH]c3c(c2c1)CCN1C(=S)CCC(c2ccccc2)=C31 [Example 11]

>  <Hydrolysis rate (%) pH=1>
26.0

$$$$
>  <compound>
CCC1=C2c3[nH]c4ccc(OC)cc4c3CCN2C(=O)CC1 [Example 1]

>  <Hydrolysis rate (%) pH=1>
79.5

$$$$
>  <compound>
CCC1=C2c3[nH]c4ccc(OC)cc4c3CCN2C(=S)CC1 [Example 7]

>  <Hydrolysis rate (%) pH=1>
17.0

$$$$
>  <compound>
COc1ccc2[nH]c3c(c2c1)CCN1C(=O)CCC(c2ccccc2)=C31 [Example 4]

>  <Hydrolysis rate (%) pH=1>
0

$$$$
